The measured values listed here are drawn from ChEMBL document CHEMBL1151963.

target: Phosphatidylinositol 4,5-bisphosphate 3-kinase catalytic subunit gamma isoform (Homo sapiens, UniProt P48736); experiment: Inhibition of PI3Kgamma
Sequence (P48736 whole entry, canonical isoform): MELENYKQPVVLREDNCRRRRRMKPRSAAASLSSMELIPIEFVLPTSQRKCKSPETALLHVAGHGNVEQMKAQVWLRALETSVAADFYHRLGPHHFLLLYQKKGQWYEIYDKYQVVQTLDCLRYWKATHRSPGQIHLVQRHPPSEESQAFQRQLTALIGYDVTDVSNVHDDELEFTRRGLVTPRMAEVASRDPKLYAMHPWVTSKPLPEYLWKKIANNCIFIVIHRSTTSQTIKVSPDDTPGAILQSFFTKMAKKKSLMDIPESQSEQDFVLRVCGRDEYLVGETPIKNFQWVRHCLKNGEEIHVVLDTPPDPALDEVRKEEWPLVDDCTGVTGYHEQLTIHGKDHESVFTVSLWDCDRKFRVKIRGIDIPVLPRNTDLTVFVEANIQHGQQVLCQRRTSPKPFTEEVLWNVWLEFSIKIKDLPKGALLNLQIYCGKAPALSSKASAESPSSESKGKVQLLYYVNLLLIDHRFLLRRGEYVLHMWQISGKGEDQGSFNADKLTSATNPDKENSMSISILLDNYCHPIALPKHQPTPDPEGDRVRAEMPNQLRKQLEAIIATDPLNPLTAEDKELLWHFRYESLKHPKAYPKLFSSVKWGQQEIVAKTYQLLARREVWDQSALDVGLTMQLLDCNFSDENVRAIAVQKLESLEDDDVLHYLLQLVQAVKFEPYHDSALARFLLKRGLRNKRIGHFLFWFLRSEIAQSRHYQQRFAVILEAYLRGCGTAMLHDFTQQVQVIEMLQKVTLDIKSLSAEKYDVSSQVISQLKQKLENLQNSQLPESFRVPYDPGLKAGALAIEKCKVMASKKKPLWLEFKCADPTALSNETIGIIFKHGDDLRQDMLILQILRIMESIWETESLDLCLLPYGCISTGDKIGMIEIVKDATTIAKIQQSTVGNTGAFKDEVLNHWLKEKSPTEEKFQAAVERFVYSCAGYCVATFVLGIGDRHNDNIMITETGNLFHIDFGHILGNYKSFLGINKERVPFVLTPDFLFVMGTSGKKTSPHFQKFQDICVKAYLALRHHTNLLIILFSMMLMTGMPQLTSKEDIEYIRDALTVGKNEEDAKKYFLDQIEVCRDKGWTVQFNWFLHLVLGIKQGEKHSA
Attribute Measured: IC50 (µM)
Give bare numbers, in µM.

Data request: Look up IC50: COC(=O)Nc1ccc(-c2nc(N3CCOCC3)c3cnn(C4CCN(C(=O)OC)CC4)c3n2)cc1
Data returned: 6.32

---

target: Tyrosine-protein kinase HCK (Homo sapiens, UniProt P08631)
Sequence (P08631 whole entry): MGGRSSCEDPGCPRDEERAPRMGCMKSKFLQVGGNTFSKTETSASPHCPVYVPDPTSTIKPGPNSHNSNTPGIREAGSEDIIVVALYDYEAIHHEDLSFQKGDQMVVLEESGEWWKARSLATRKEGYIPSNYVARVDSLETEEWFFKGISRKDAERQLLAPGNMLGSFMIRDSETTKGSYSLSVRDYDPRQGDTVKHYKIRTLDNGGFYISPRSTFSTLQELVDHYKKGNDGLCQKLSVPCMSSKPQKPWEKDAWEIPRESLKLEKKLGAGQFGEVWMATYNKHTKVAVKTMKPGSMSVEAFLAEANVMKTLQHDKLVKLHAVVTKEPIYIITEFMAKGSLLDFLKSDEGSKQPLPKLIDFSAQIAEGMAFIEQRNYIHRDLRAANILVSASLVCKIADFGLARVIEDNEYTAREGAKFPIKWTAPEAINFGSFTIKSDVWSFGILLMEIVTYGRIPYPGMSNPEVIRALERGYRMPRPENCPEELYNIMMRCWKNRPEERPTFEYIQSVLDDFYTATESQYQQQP
pIC50: −log10 of the molar value.
Attribute Measured: pIC50

Data request: Look up pIC50: COC(=O)Nc1ccc(-c2nc(N3CCOCC3)c3cnn(C4CCN(C(=O)OC)CC4)c3n2)cc1
Data returned: < 4.30

---

molecular target: Cyclin-dependent kinase 2 (Homo sapiens); experiment: Inhibition of CDK2/cyclinA after 1 hr by mobility shift electrophoresis assay
pIC50: −log10 of the molar value.
Attribute Measured: pIC50

Data request: Look up pIC50: COC(=O)Nc1ccc(-c2nc(N3CCOCC3)c3cnn(C4CCN(C(=O)OC)CC4)c3n2)cc1
Data returned: < 4.30

---

Would you kindly list pIC50 for each of these molecules?
target: Serine/threonine-protein kinase mTOR (Homo sapiens); assay: Inhibition of flag-tagged truncated human mTOR (1360-2549) expressed in HEK293 cells by DELFIA assay; assay type: cell-based; conditions: hek293
Numbers only, as −log10 of the molar value.

For orientation, consider the following solved cases.
COC(=O)N1CCC(n2ncc3c(N4CCOCC4)nc(-c4ccc(NC(=O)Nc5ccc(CO)cc5)cc4)nc32)CC1
10.10
COC(=O)N1CCC(n2ncc3c(N4CCOCC4)nc(-c4ccc(NC(=O)Nc5ccncc5)cc4)nc32)CC1
9.52
CNC(=O)Nc1ccc(-c2nc(N3CCOCC3)c3cnn(C4CCN(C(C)=O)CC4)c3n2)cc1
8.68

Data request: Look up pIC50: CNC(=O)Nc1ccc(-c2nc(N3CCOCC3)c3cnn(C4CCN(C(=O)NC)CC4)c3n2)cc1
Data returned: 8.70

---

biological target: Serine/threonine-protein kinase mTOR (Homo sapiens); test: Inhibition of flag-tagged truncated human mTOR (1360-2549) expressed in HEK293 cells by DELFIA assay; type: cell-based
Attribute Measured: IC50 (nM)
Give bare numbers, in nM.

For orientation, consider the following solved cases.
CC(=O)Nc1ccc(-c2nc(N3CCOCC3)c3cnn(C4CCN(Cc5cccnc5)CC4)c3n2)cc1
7
CNC(=O)Nc1ccc(-c2nc(N3CCOCC3)c3cnn(C4CCN(C)CC4)c3n2)cc1
22

Next compound, please.
Data request: IC50 of CCOC(=O)Nc1ccc(-c2nc(N3CCOCC3)c3cnn(C4CCN(Cc5ccccc5)CC4)c3n2)cc1 on Serine/threonine-protein kinase mTOR (Homo sapiens)?
Data returned: 46

---

assay: Metabolic stability in nude mouse microsomes assessed as half life at 1 uM by HPLC-MS/MS analysis; assay type: ADME, Microsome
Attribute Measured: half-life at 1 µM

CNC(=O)Nc1ccc(-c2nc(N3CCOCC3)c3cnn(C4CCN(C(=O)N(C)C)CC4)c3n2)cc1
> 30 min
CNC(=O)Nc1ccc(-c2nc(N3CCOCC3)c3cnn(C4CCNCC4)c3n2)cc1
> 30 min

Data request: Look up half-life at 1 µM: CCNC(=O)Nc1ccc(-c2nc(N3CCOCC3)c3cnn(C4CCN(C(=O)OC)CC4)c3n2)cc1
Data returned: > 30 min
